# method_summary: Caco-2 permeability assay
# Type: in vitro ADME
# condition_parameters: human, Caco-2
property_name: Papp A→B
The reply should consist of the numeric value with the unit placed after it.

Quick one: give measured Papp A→B for `CC(C)(N)C(=O)N1CCn2c(nc(-c3ccc(F)cc3)c2Nc2ccc(F)cc2)C1`
3.05 ×10⁻⁶ cm/s

Quick one: give measured Papp A→B for `NCC(=O)N1CCn2c(nc(-c3ccc(F)cc3)c2Nc2ccc(F)cc2)C1`
0.7 ×10⁻⁶ cm/s

Quick one: give measured Papp A→B for `CC1(C)NC(=O)Cn2c1nc(-c1ccc(F)cc1)c2Nc1ccc(Cl)c(F)c1`
3.22 ×10⁻⁶ cm/s
